assay: Pharmacokinetics in mice, oral dose; assay type: in vivo, mice (strain FVB/N); details: FVB/N, mouse, brain; oral 10 mg/kg; read-out: Tmax Brain
ASSAY_READOUT: Tmax (h)
Write the answer as a number in h, unit excluded.

Exercise: State the recorded Tmax for this entry: CC(C)[C@@H]1OC(=O)C(C)(C)/C=C/c2ccc3ccc(nc3c2)N(C)NC(=O)[C@@H]2CCCN(N2)C(=O)[C@H](C)NC1=O [Compound (2)]
Solution: 7

====

tested on: SH-SY5Y cells; assay: Thapsigargin treated cell death assay in SH-SY5Y cells; type: cell-based, human; settings: compound at 10 μM; positive = protection from cell death, negative = compound toxicity
ASSAY_READOUT: SYSY [10 μM] % recovery (%)
Write the answer as a number in %, unit excluded.

Exercise: Request body: readout SYSY [10 μM] % recovery, system SH-SY5Y cells, query CC(C)[C@@H]1OC(=O)C(C)(C)/C=C/c2ccc3ccc(nc3c2)N(C)NC(=O)[C@@H]2CCCN(N2)C(=O)[C@H](CCC(=O)N[C@H](C)c2ccccc2)NC1=O . Return the value.
Solution: 63

Exercise: Also check CC(C)C(=O)Nc1cccc(C[C@@H]2OC(=O)C(C)(C)/C=C/c3ccc4ccc(nc4c3)N(C)NC(=O)[C@@H]3CCCN(N3)C(=O)[C@H](C)NC2=O)c1
Solution: 40

Exercise: Also check C[C@@H]1NC(=O)[C@H](C[C@H]2CCCN(C)C2)OC(=O)C(C)(C)/C=C/c2ccc3ccc(nc3c2)N(C)NC(=O)[C@@H]2CCCN(N2)C1=O
Solution: 41

Exercise: Also check CC(C)[C@@H]1OC(=O)C(C)(C)/C=C/c2ccc3ccc(nc3c2)N(Cc2ccccc2)NC(=O)[C@@H]2CCCN(N2)C(=O)[C@H](C)NC1=O
Solution: 87.067

Exercise: Also check CC(C)[C@@H]1OC(=O)C(C)(C)/C=C/c2ccc3ccc(nc3c2)N(C)NC(=O)[C@@H]2CCCN(N2)C(=O)[C@H](C)NC1=O
Solution: 40.4

====

molecular target: cyclophilin A (Homo sapiens (Human), UniProt P62937); experiment: Functional peptidyl prolyl isomerase (PPIase) spectrophotometric assay, cyclophilin A; type: biochemical; details: first value of CypA/D cell
Sequence (P62937 whole entry, species assumed): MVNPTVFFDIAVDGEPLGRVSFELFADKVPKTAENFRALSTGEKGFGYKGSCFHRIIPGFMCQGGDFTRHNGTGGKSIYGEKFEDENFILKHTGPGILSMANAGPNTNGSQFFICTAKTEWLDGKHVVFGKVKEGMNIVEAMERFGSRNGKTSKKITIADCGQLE
pKi: −log10 of the molar value.
The threshold is inclusive: pKi of exactly 8 counts as Satisfied; values below receive Not satisfied.

Exercise: Could you tell me if the measured pKi of C[C@@H]1NC(=O)[C@H](Cc2ccc(NS(C)(=O)=O)cc2)OC(=O)C(C)(C)/C=C/c2ccc3ccc(nc3c2)N(C)NC(=O)[C@@H]2CCCN(N2)C1=O reaches 8 or more?
Solution: Satisfied

Exercise: Also check CC(C)[C@@H]1OC(=O)C(C)(C)/C=C/c2ccc3ccc(nc3c2)N(C)NC(=O)[C@@H]2CCCN(N2)C(=O)[C@H](Cc2ccccc2)NC1=O
Solution: Satisfied

Exercise: Also check CC(C)C(=O)Nc1cccc(C[C@@H]2OC(=O)C(C)(C)/C=C/c3ccc4ccc(nc4c3)N(C)NC(=O)[C@@H]3CCCN(N3)C(=O)[C@H](C)NC2=O)c1
Solution: Not satisfied

Exercise: Also check CNC(=O)c1ccc(CC2OC(=O)C(C)(C)/C=C/c3ccc4ccc(nc4c3)N(C)NC(=O)[C@@H]3CCCN(N3)C(=O)[C@H](C)NC2=O)cc1 (single isomer, unassigned) [Compound (38)]
Solution: Not satisfied

Exercise: Also check C[C@@H]1NC(=O)C(Cc2ccc(C(=O)O)cc2)OC(=O)C(C)(C)/C=C/c2ccc3ccc(nc3c2)N(C)NC(=O)[C@@H]2CCCN(N2)C1=O (single isomer, unassigned)
Solution: Not satisfied

Exercise: Also check CC(C)[C@@H]1OC(=O)C(C)(C)/C=C/c2ccc3ccc(nc3c2)N(C)NC(=O)[C@@H]2CCCN(N2)C(=O)[C@H](CCCCNCc2ccc3ccccc3c2)NC1=O
Solution: Satisfied

Exercise: Also check CC(C)[C@@H]1NCC(C)(C)/C=C/c2ccc3ccc(nc3c2)N(C)NC(=O)[C@@H]2CCCN(N2)C(=O)[C@H](C)NC1=O
Solution: Not satisfied

Exercise: Also check CC(C)[C@H]1OC(=O)C(C)(C)/C=C/c2ccc3ccc(nc3c2)N(C)NC(=O)[C@@H]2CCCN(N2)C(=O)[C@H](C)NC1=O
Solution: Not satisfied

Exercise: Also check C[C@@H]1NC(=O)[C@H](CC2CCCNC2)NC(=O)C(C)(C)/C=C/c2ccc3ccc(nc3c2)N(C)NC(=O)[C@@H]2CCCN(N2)C1=O (some centres unmarked)
Solution: Not satisfied

====

biological target: UniProtKB P30405; assay: Functional peptidyl prolyl isomerase (PPIase) spectrophotometric assay, cyclophilin D; settings: second value of CypA/D cell; read-out: Ki CypD
pKi: −log10 of the molar value.
The threshold is inclusive: pKi of exactly 8 counts as Condition met; values below receive Condition not met.

Exercise: Could you tell me if the measured pKi of C[C@@H]1NC(=O)[C@H](Cc2ccc(NS(C)(=O)=O)cc2)OC(=O)C(C)(C)/C=C/c2ccc3ccc(nc3c2)N(C)NC(=O)[C@@H]2CCCN(N2)C1=O reaches 8 or more?
Solution: Condition met

Exercise: Also check C[C@@H]1NC(=O)[C@@H](CC2CCCNC2)OC(=O)C(C)(C)/C=C/c2ccc3ccc(nc3c2)N(C)N(C)C(=O)[C@@H]2CCCN(N2)C1=O (single isomer, unassigned) [Compound (32)]
Solution: Condition not met

Exercise: Also check CC(C)[C@@H]1OC(=O)C(C)(C)/C=C/c2ccc3ccc(nc3c2)N(C)NC(=O)[C@@H]2CCCN(N2)C(=O)[C@H](Cc2ccc(CN(C)C)cc2)NC1=O
Solution: Condition not met

====

target: cyclophilin D (Homo sapiens (Human), UniProt P30405); assay: Functional peptidyl prolyl isomerase (PPIase) spectrophotometric assay, cyclophilin D; conditions: second value of CypA/D cell; read-out: Ki CypD
Sequence (P30405 30-207, species assumed): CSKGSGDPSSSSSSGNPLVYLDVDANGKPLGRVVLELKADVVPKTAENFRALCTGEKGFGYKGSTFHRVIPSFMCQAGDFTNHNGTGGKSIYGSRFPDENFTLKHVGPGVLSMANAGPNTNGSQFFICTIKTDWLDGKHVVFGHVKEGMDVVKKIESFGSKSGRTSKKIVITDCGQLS
ASSAY_READOUT: pKi
Remember the convention: pKi equals -log10 of concentration in molar.

Exercise: State the recorded pKi for this entry: C[C@@H]1NC(=O)C(Cc2ccc(C(=O)O)cc2)OC(=O)C(C)(C)/C=C/c2ccc3ccc(nc3c2)N(C)NC(=O)[C@@H]2CCCN(N2)C1=O (single isomer, unassigned)
Solution: 6.66

Exercise: Also check CC(C)[C@H]1CC(=O)C(C)(C)/C=C/c2ccc3ccc(nc3c2)N(C)NC(=O)[C@@H]2CCCN(N2)C(=O)[C@H](C)NC1=O
Solution: 6.82

Exercise: Also check CC(C)[C@@H]1OC(=O)C(C)(C)/C=C/c2ccc3ccc(nc3c2)N(C)NC(=O)[C@@H]2CCCN(N2)C(=O)[C@H](CCC(=O)N2CCNCC2)NC1=O
Solution: 7.39

Exercise: Also check CC(C)[C@@H]1OC(=O)C(C)(C)/C=C/c2ccc3ccc(nc3c2)N(C)NC(=O)[C@@H]2CCCN(N2)C(=O)[C@H](CCC(=O)N[C@H](C)c2ccccc2)NC1=O
Solution: 8.18

Exercise: Also check CC(C)[C@@H]1OC(=O)C(C)(C)/C=C/c2ccc3ccc(nc3c2)N(C)NC(=O)[C@@H]2CCCN(N2)C(=O)[C@H](CCC(=O)Nc2ccccc2)NC1=O
Solution: 7.82

Exercise: Also check CC(C)[C@@H]1NCC(C)(C)/C=C/c2ccc3ccc(nc3c2)N(C)NC(=O)[C@@H]2CCCN(N2)C(=O)[C@H](C)NC1=O
Solution: 6.85

Exercise: Also check CC(C)[C@@H]1OC(=O)C(C)(C)/C=C/c2ccc3ccc(nc3c2)N(C)NC(=O)[C@@H]2CCCN(N2)C(=O)[C@H](CCC(=O)N2CCC(O)CC2)NC1=O
Solution: 7.68

Exercise: Also check CC(C)[C@@H]1OC(=O)C2(/C=C/c3ccc4ccc(nc4c3)N(C)NC(=O)[C@@H]3CCCN(N3)C(=O)[C@H](C)NC1=O)COCOC2
Solution: 6.43

Exercise: Also check CC(C)[C@H]1C(=O)N[C@@H](C)C(=O)N2CCC[C@H](N2)C(=O)NN(C)c2ccc3ccc(cc3n2)/C=C/C(C)(C)CN1C
Solution: 6.59

Exercise: Also check COC[C@@]1(C)/C=C/c2ccc3ccc(nc3c2)N(C)NC(=O)[C@@H]2CCCN(N2)C(=O)[C@H](C)NC(=O)[C@H](C(C)C)OC1=O
Solution: 7.96

Exercise: Also check CC(C)[C@@H]1OC(=O)C(C)(C)/C=C/c2ccc3ccc(nc3c2)N(C)NC(=O)[C@@H]2CCCN(N2)C(=O)[C@H](CCC(=O)NC2CCN(C)CC2)NC1=O
Solution: 7.80

====

assay: Pharmacokinetics in mice, subcutaneous administration; type: in vivo, mice (strain FVB/N); conditions: FVB/N, mouse, brain, sc; subcutaneous 10 mg/kg; read-out: Tmax Brain
ASSAY_READOUT: Tmax (h)
Write the answer as a number in h, unit excluded.

Exercise: State the recorded Tmax for this entry: CC(C)[C@@H]1OC(=O)C(C)(C)/C=C/c2ccc3ccc(nc3c2)N(C)NC(=O)[C@@H]2CCCN(N2)C(=O)[C@H](C)NC1=O
Solution: 2
